Molecular target: T1, human TREM2 truncated stalk peptide (aa 149-163) (human, also: biotinylated (site not given here))
T1 construct: also called Human TREM2 peptide (aa 149-163); truncated stalk peptide containing the ADAM10/17 cleavage site
T1 peptide: SFEDAHVEHSISRSL
Assay: ELISA on biotinylated peptide captured by streptavidin; A450 normalised to isotype control
No end group written: not given here.

{"BINDER": "CL0020103 (antibody, V domains shown, also called Clone CL0020103) VH: EVQLQQSGPELVKPGASVKISCKTSGYTFTEYTMHWVKESHGKSLEWIGGINPNKGGSSYNQKFKGKATLTVDKSSSTAYMDLRRLTSEDSAVYYCARGGYEYYALDYWGQGTSVTVSS VL: DIVMSQSPSSLTVSVGERVTMSCKSSQSLLYSRNQKNYLAWYQQKPGQSPKLLIYWASTRESGVPDRFTGSGSGTDFSLTISSVKAEDLAVYYCQQYYSYPPTFGGGTKLEIK", "fold over background (A450)": "1.8 fold"}
{"BINDER": "CL0020113 (antibody, V domains shown, also called Clone CL0020113) VH: QIQLVQSGPELKKPGESLKISCKASGYTFTDYAMQWVKQAPGKGLQYMGWINTQTGKPTYADDFKERFVFSLETSASTAYLKINNLKNDDMATYLCARSYGGEYNWIAYWGQGTLVTVSS VL: DIVMTQTPSSQAVSAGEKVTMNCKSSQSLLYNENKKNYLAWYQQKPGQSPKLLIYWASTRESGVPDRFIGSGSGTDFTLTISSVQAEDLAVYYCQQSYNFPPTFGGGTKLELK", "fold over background (A450)": "1.4 fold"}
{"BINDER": "CL0020120 (antibody, V domains shown, also called Clone CL0020120) VH: EVQLQQSGPELVRTGASVKISCRASSYSFTDNYIHWVKQTHGRSLEWIGYISGYTGATSYNQKFKGKATFTVDTSSSTAYMQFNSLTSEDSAVYYCARSTMIAPYGMDYWGQGTSVTVSS VL: DIVMTQSHKFMSTSVGDRVNITCKASQDVVTAVAWYQQKPGQSPKLLIYWASTRHTGVPDRFTGSGSGTDFTLTISNVQSEDLADYFCQQYSRYPLTFGAGTKLELK", "fold over background (A450)": "1.2 fold"}
{"BINDER": "CL0020124 (antibody, V domains shown, also called Clone CL0020124) VH: EVQLQQSGPVLVKPGASVKMSCKPSGYTFTDYYMNWVKQSHGKSLEWIGSINPYTGGSSYNQKFRGKATLTVDKSSSTAYMELNSLTSEDSAVYYCARGSYYSNLGFAYWGQGTLVTVSA VL: DVQLTQSPSYLTASPGETITINCRASKSISKYLAWYQEKPGKTNKLLISSGSTLQSGIPSRFSGSGSGTDFTLTISSLEPEDFAMYYCQQYSEYPFTFGSGTKLEIK", "fold over background (A450)": "1.5 fold"}
{"BINDER": "CL0020123 (antibody, V domains shown, also called Clone CL0020123) VH: EVQLQQSGAELVRSGASVKLSCTASGFSIEDFYIHWVKQRPEQGLEWIGWIDPENGDSKYAPKFQGKATMTADTSSNTAYLHLSSLTSEDTAVYYCHADHGNYGSTMDYWGQGTSVTVSS VL: DIQMNQSPSSLSASLGDTVTITCHASQHINVWLSWYQQKPGDHPKLLIYKASNLHTGVPSRFSGSGSGTGFTLTISSLQPEDIATYYCQQGQTYPRTFGGGTKLEIK", "fold over background (A450)": "1.2 fold"}
